Where do these numbers come from? They come from patent US20170342126A1.

I'd appreciate it if you could supply pIC50 values for the items below.
TARGET OF ASSAY: T1, HLA-DR DRB1*0405 (human)
T1 chain 1: not shown
T1 chain 2: not shown
ASSAY NAME: radioligand competition, purified HLA-DR
ASSAY CONTEXT: remark: other sources report otherwise
Units for pIC50: none; it is -log10 of a concentration expressed in mol/L.

The binder identified as VCGIQNSVSANRSDP [Peptide 9019.0135] registered its pIC50 at 5.73

The binder identified as SDSVILNVLYGPDAP [Peptide 9019.0119] registered its pIC50 at 5.84

The binder identified as KLCIYTDNSIRPEEL [Peptide 9019.0159] registered its pIC50 at 5.50
